molecular target: hDHODH (Met30–Arg396) (Homo sapiens, UniProt Q02127); construct: enzyme activity determination of PfDHODH (Phe158–Ser569) and hDHODH (Met30–Arg396); made in house; experiment: In vitro enzyme assay, hDHODH (DCIP reduction); type: biochemical; settings: in vitro enzyme assay
Sequence (Q02127 29-395 limits assumed): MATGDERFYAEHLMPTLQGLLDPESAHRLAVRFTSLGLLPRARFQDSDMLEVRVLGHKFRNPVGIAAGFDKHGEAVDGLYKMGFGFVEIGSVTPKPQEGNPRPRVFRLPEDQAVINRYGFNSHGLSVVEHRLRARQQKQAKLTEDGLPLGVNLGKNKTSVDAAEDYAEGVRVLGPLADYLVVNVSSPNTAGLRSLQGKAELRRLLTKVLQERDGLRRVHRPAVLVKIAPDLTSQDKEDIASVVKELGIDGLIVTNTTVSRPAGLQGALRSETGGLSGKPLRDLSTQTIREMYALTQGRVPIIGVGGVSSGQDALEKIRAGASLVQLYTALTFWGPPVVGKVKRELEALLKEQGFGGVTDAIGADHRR
experimentalEndpoint: IC50

Exam item: Value lookup for IC50; key = CCNC(=O)C1=C(Nc2ccc3ccccc3c2)OCC1=O [Compound 15]
Marked response: > 10 µM

Exam item: # query: IC50 of entry O=C1COC2=C1C(=O)N(C1CC1)CN2c1ccc2ccccc2c1 [Compound 25]
Marked response: > 10 µM

Exam item: Quick one: IC50 for CCNC(=O)C1=C(Nc2ccc3c(c2)CCC3)OCC1=O [Compound 13] ?
Marked response: > 10 µM

Exam item: Returns the measured IC50 for the input compound. Input: O=C(O)C1=C(Nc2ccc3ccccc3c2)OCC1=O [Compound 11]
Marked response: > 10 µM

Exam item: IC50 lookup needed for CCCNC(=O)C1=C(Nc2ccc3ccccc3c2)OCC1=O [Compound 16] , thanks.
Marked response: > 10 µM

Exam item: Which IC50 reading was recorded for the compound CCN1CN(c2ccc3ccccc3c2)C2=C(C(=O)CO2)C1=O [Compound 23] ?
Marked response: > 10 µM

Exam item: Which measured IC50 value corresponds to O=C1COC(Nc2ccc3ccccc3c2)=C1C(=O)NC1CC1 [Compound 18] ?
Marked response: > 10 µM

Exam item: Give the measured IC50 of NN1CN(c2ccc3ccccc3c2)C2=C(C(=O)CO2)C1=O [Compound 26] .
Marked response: > 10 µM

Exam item: Query (compound): CCCN1CN(c2ccc3ccccc3c2)C2=C(C(=O)CO2)C1=O [Compound 24] ; field requested: IC50
Marked response: > 10 µM

Exam item: Report IC50 for CCN1CN(c2ccc3c(c2)CCC3)C2=C(C(=O)CO2)C1=O [Compound 21] please.
Marked response: > 10 µM
